Values were extracted from patent US6525001B1.

System: duck salad (Heteranthera limosa)
Assay: Test B flood test
Format: in vivo
Details: Rate 62 g/ha, Postemergence (flood test)
For each of the compounds below, state its Plant response rating, Ducksalad.
API doc: respond with a numeric literal and nothing else, no unit.

Look up Plant response rating, Ducksalad: CCc1cnc(-n2ccc(C(F)(F)F)n2)nc1Cc1cccc(C(F)(F)F)c1
1

Consider the compound shown here: Cc1cnc(-c2ccc(Cl)cc2)nc1Cc1cccc(C#N)c1 What is its recorded Plant response rating, Ducksalad?
0

Can you look up the measured Plant response rating, Ducksalad of Cc1cnc(-c2ccc(C(F)(F)F)cc2)nc1Cc1cccc(C#N)c1 for me?
2

I'd like to know its Plant response rating, Ducksalad. The compound in question is CCc1cnc(-n2ccc(C(F)(F)F)n2)nc1Cc1cccc(OC(F)(F)F)c1
3

###

System: rice (Oryza sativa)
Experiment: Test B flood test
Type: in vivo
Design: key: 0 is no effect; 10 is complete control
Settings: Rate 62 g/ha, Postemergence (flood test)
measurement label: Plant response rating, Rice
The answer should be a number; do not append a unit.

Which Plant response rating, Rice value is on record for Cc1cnc(-c2ccccc2F)nc1Cc1cccc(C(F)(F)F)c1 [Compound 26] ?
0

# input molecule: Cc1cnc(-c2ccc(C(F)(F)F)cc2)nc1C(C)c1cccc(C(F)(F)F)c1 (racemic) [Compound 19] ; wanted: its Plant response rating, Rice
0

Which Plant response rating, Rice is reported for this molecule? Cc1cnc(-n2cnc(C(F)(F)F)n2)nc1Cc1cccc(C(F)(F)F)c1 [Compound 43]
4

Form field: reported Plant response rating, Rice of Cc1cnc(-c2ccc(OC(F)(F)F)cc2)nc1Cc1cccc(C(F)(F)F)c1 [Compound 16]
1

What does the record list as Plant response rating, Rice for Cc1cnc(-n2cnc(C(F)(F)F)c2)nc1Cc1cccc(C(F)(F)F)c1 [Compound 44] ?
5

Which Plant response rating, Rice is reported for this molecule? Cc1cnc(-c2ccc(F)c(Cl)c2)nc1Cc1cccc(C(F)(F)F)c1 [Compound 25]
3

Return reported Plant response rating, Rice; argument: Cc1cnc(-n2ccc(C(F)(F)F)n2)nc1Cc1cccc(OC(F)(F)F)c1 [Compound 42]
4

###

System: pigweed (Amaranthus retroflexus)
Assay: Test B pre-/postemergence
Format: in vivo
Design: key: 0 is no effect; 10 is complete control
Conditions: Preemergence, Rate 62 g/ha; scale of 0 to 10
Protocol: […] At the same time, these crop and weed species were also treated with postemergence applications of test chemicals formulated in the same manner. […] Treated plants and controls were maintained in a greenhouse for twelve to sixteen days, after which all species were compared to controls and visually evaluated. […]
For each entry below, report its Plant response rating, Redroot pigweed value.
// keep it numeric: no unit symbol after the value

Report Plant response rating, Redroot pigweed for O=C(c1cccc(C(F)(F)F)c1)c1ccnc(-c2ccc(F)cc2F)n1 please.
0

Look up Plant response rating, Redroot pigweed for this molecule: Cc1cnc(-n2ccc(C(F)(F)C(F)(F)F)n2)nc1C(=O)c1cccc(C(F)(F)F)c1
8

Looking for the measured Plant response rating, Redroot pigweed of Cc1cnc(-n2cnc(C(F)(F)F)c2)nc1C(=O)c1cccc(C(F)(F)F)c1 , can you help?
8

Reported Plant response rating, Redroot pigweed for Cc1cnc(-c2ccc(C(F)(F)F)cc2)nc1C(=O)c1ccc(C(F)(F)F)cc1 : what is it?
0

Plant response rating, Redroot pigweed for COc1cnc(-n2ccc(C(F)(F)F)n2)nc1C(=O)c1cccc(C(F)(F)F)c1 ?
6
